# TEST SYSTEM: GlyT1 (Homo sapiens, UniProt P48067)
# Construct: expressed in transfected cells
# Sequence (P48067 whole entry): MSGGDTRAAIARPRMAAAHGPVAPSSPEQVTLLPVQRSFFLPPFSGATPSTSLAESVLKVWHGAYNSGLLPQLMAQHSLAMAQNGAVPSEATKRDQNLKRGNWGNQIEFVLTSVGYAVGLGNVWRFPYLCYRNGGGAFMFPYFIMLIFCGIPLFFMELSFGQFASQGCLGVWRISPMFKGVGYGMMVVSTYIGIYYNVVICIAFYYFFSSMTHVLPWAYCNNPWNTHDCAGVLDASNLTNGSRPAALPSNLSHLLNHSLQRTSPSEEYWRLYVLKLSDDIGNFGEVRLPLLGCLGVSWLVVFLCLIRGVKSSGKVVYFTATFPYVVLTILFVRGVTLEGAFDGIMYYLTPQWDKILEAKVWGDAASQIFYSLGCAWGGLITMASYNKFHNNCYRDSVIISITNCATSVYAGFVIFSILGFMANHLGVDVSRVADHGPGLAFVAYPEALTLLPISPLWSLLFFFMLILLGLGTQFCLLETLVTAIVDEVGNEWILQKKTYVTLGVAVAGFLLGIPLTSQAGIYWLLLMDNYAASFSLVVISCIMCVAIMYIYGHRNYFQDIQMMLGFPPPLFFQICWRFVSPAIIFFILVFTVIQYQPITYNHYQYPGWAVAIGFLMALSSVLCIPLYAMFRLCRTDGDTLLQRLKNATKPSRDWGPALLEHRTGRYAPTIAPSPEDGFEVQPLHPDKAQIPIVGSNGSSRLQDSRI
# EXPERIMENT DESCRIPTION: Glycine Transporter 1 (GlyT1) uptake assay, scintillation proximity assay of [14C]-glycine uptake
# Format: cell-based
# CONDITION CONTEXT: [14C]-glycine uptake; read-out: GlyT1 (pIC50) (converted)
METRIC NAME: IC50

Known results for compounds:
{"COMPOUND": "COc1c(C#N)ccc(OCC(F)(F)F)c1C(=O)N1CC(c2ncc(C(F)(F)F)cc2Cl)C1", "IC50": "< 100 nM"}
{"COMPOUND": "COc1c(S(C)(=O)=O)ccc(O[C@@H](C)C(F)(F)F)c1C(=O)N1CC(c2cc(F)c(F)c(F)c2)C1", "IC50": "< 100 nM"}
{"COMPOUND": "COc1c(C#N)ccc(OC(C)C)c1C(=O)N1CC(c2ccc(C3CCOCC3)cn2)C1", "IC50": "100 to 1000 nM"}
{"COMPOUND": "COc1c(C#N)ccc(O[C@@H](C)C(F)(F)F)c1C(=O)N1CC(c2ccc(C#N)c(F)c2Cl)C1", "IC50": "< 100 nM"}

Enquiry: Output measured IC50 for this item: COc1c(C#N)ccc(O[C@@H](C)C(F)(F)F)c1C(=O)N1CC(c2ccc(C(F)F)cn2)C1
Return: 100 to 1000 nM

Enquiry: Report IC50, nothing else, for this compound: COc1c(S(C)(=O)=O)ccc(O[C@@H](C)C(F)(F)F)c1C(=O)N1CC(Oc2ccccc2)C1
Return: < 100 nM

Enquiry: Using known records, supply IC50 for CC(Oc1ccc(C#N)c(Cl)c1C(=O)N1CC(c2ccc(F)c(F)c2)C1)C(F)(F)F (stereo not drawn)
Return: 1000 to 10000 nM

Enquiry: Using known records, supply IC50 for COc1c(S(C)(=O)=O)ccc(O[C@@H](C)C(F)(F)F)c1C(=O)N1CC(c2cc(Cl)ccc2F)C1
Return: < 100 nM

Enquiry: Could you please provide reported IC50 for C[C@H](Oc1ccc(C#N)c(Cl)c1C(=O)N1CC(c2ccc(C(F)(F)F)cn2)C1)C(F)(F)F ? Thanks!
Return: < 100 nM

Enquiry: Entry COc1c(S(C)(=O)=O)ccc(OCC(F)(F)F)c1C(=O)N1CC(c2ncc(C(F)(F)F)cc2Cl)C1 needs its IC50 filled in; supply it.
Return: 100 to 1000 nM

Enquiry: Give the reported value of IC50 for this record: COc1c(S(C)(=O)=O)ccc(O[C@@H](C)C(F)(F)F)c1C(=O)N1CC(c2cccc(C(F)(F)F)c2)C1
Return: < 100 nM

Enquiry: Answer with the recorded IC50 of N#Cc1ccc(C2CN(C(=O)c3c(OCC(F)(F)F)ccc(C#N)c3Cl)C2)cc1 only.
Return: < 100 nM

Enquiry: Output IC50 of COc1c(C#N)ccc(O[C@@H](C)C(F)(F)F)c1C(=O)N1CC(c2ncccc2Cl)C1
Return: < 100 nM

Enquiry: For the compound COc1c(C#N)ccc(O[C@@H](C)C(F)(F)F)c1C(=O)N1CC(c2ccc(C(F)(F)F)nc2)C1 , report IC50.
Return: 100 to 1000 nM

Enquiry: Provide only the value of recorded IC50 for COc1c(S(C)(=O)=O)ccc(O[C@@H](C)C(F)(F)F)c1C(=O)N1CC(c2ccc(C3CCOCC3)cc2)C1
Return: < 100 nM

Enquiry: Give reported IC50 value for COc1c(C#N)ccc(O[C@@H](C)C(F)(F)F)c1C(=O)N1CC(c2ccc(C3CCC(F)(F)CC3)cn2)C1
Return: < 100 nM

Enquiry: Determine from records and report IC50 for COc1c(C#N)ccc(C2CC(F)(F)C2)c1C(=O)N1CC(c2ncc(C(F)(F)F)cc2Cl)C1
Return: < 100 nM

Enquiry: Given the compound COc1c(C#N)ccc(C2(F)CCCC2)c1C(=O)N1CC(c2ccc(C(F)(F)F)cn2)C1 , write its reported IC50.
Return: < 100 nM

Enquiry: Item CC(Oc1ccc(C#N)c(Cl)c1C(=O)N1CC(c2ccncc2)C1)C(F)(F)F (stereo not drawn) : provide IC50
Return: 100 to 1000 nM
